- PROTOCOL_TEXT: in vitro
- Type: in vitro ADME, human
- SETUP_CONDITIONS: human liver microsomes, 5 µM test compound, 37 °C, 2 h
Kindly supply the reported % remain (HLM, 2 h) values for the records listed here.
Answers are plain numbers, in %.

The following molecules have reported results that may help.
• O=C(Nc1ccccc1)c1ccccc1Sc1ccc2c(/C=C/c3ccccn3)n[nH]c2c1 [Reference Example 33(c)] = 16
• O=C(NCC(F)(F)F)c1ccccc1Sc1ccc2c(/C=C/c3ccccn3)n[nH]c2c1 [Reference Example 33(f)] = 31
• C/C=C/C(=O)Nc1cccc(C(=O)c2ccc3c(/C=C/c4ccccn4)n[nH]c3c2)c1 [Reference Example 41(c)] = 68

# input for lookup
IN: Fill blank: measured % remain (HLM, 2 h) of the molecule Cc1cc(C(=O)Nc2cccc(C(=O)c3ccc4c(/C=C/c5ccccn5)n[nH]c4c3)c2)n(C)n1 [Reference Example 41(p)] is ____.
OUT: 62

###

Answer each item with its documented pIC50.
- System: HCT-116
- PROTOCOL_TEXT: HCT-116 cell assay (Table 2)
- Type: cell-based
- SETUP_CONDITIONS: Homo sapiens
pIC50: −log10 of the molar value.

- COc1cc(O)ccc1-c1ccc2c(-c3nc4ccc(S(N)(=O)=O)cc4[nH]3)n[nH]c2c1 [Reference Example 25(i)]: < 5.30
- CNC(=O)c1ccc2[nH]c(-c3n[nH]c4cc(-c5ccc(O)cc5OC)ccc34)nc2c1 [Reference Example 25(g)]: 5.70

Kindly consider the entry below.
IN: Which pIC50 value is on record for Oc1ccc(-c2ccc3c(-c4nc5ccccc5[nH]4)n[nH]c3c2)c(Oc2ccccc2)c1 [24(g)] ?
OUT: < 5.30

###

I'd be grateful if you could share measured inhibition at 1 µM for these entries.
- TARGET_ENTITY: unphosphorylated VEGF-R2Δ50 (Homo sapiens, UniProt P35968, DEL940-989/E990V)
- Sequence (P35968 with tags, fused parts or gaps DEL940-989/E990V limits assumed): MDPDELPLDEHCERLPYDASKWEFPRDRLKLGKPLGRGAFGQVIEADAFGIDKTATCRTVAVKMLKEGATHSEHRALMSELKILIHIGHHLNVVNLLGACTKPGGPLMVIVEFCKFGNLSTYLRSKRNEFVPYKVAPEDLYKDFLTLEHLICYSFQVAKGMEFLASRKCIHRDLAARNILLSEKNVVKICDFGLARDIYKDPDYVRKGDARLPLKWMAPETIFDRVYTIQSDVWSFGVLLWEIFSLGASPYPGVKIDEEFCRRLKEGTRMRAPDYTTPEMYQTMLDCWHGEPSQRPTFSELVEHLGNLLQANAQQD
- PROTOCOL_TEXT: biochemical
- SETUP_CONDITIONS: read-out: FLVK* (% inhibition)
Numbers only, in %.

• COc1cccc(/C=C/c2n[nH]c3cc(-c4ccncc4)ccc23)c1 [Reference Example 29(e)] = 33

Required: inhibition at 1 µM, one value per compound below.
1. Oc1ccc(-c2ccc3c(/C=C/c4ccccc4)n[nH]c3c2)cn1 [Reference Example 28(c)]
2. C(=C\c1n[nH]c2cc(-c3ccncc3)ccc12)/c1nc2ccccc2[nH]1 [Reference Example 29(q)]
3. Oc1ccc(-c2ccc3c(/C=C/c4ccccc4)n[nH]c3c2)cc1 [Reference Example 28(b)]
4. C(=C\c1n[nH]c2cc(-c3cccnc3)ccc12)/c1ccccc1 [Reference Example 27(e), 6-pyridin-3-yl-3-E-styryl-1H-indazole]
5. C(=C\c1n[nH]c2cc(-c3ccncc3)ccc12)/c1ccccc1 [Reference Example 27(f)]
6. C(=C\c1n[nH]c2cc(-c3ccccc3)ccc12)/c1ccccc1 [Reference Example 27(a), 6-phenyl-3-E-styryl-1H-indazole]
7. Oc1cccc(-c2ccc3c(/C=C/c4ccccc4)n[nH]c3c2)c1 [Reference Example 28(a), 6-(3-hydrophenyl)-3-E-styryl-1H-indazole]

OUT:
1: 34; 2: 11; 3: 96; 4: 34; 5: 49; 6: 71; 7: 84

###

- TARGET_ENTITY: phosphorylated VEGF-R2Δ50 (Homo sapiens, UniProt P35968, DEL940-989/E990V)
- PROTOCOL_TEXT: biochemical
- SETUP_CONDITIONS: read-out: FLVK -P** (% inhibition)
ASSAY_READOUT: inhibition at 0.05 µM (%)
One number for each entry, in %.

Parameter requested: inhibition at 0.05 µM. Apply to each item below.
1. CNC(=O)c1ccccc1Sc1ccc2c(/C=C/c3ccccn3)n[nH]c2c1 [Reference Example 33(a)]
2. CCn1nc(C)cc1C(=O)Nc1cccc(C(=O)c2ccc3c(/C=C/c4ccccn4)n[nH]c3c2)c1 [Reference Example 41(a)]
3. O=C(Nc1cccc(C(=O)c2ccc3c(/C=C/c4ccccn4)n[nH]c3c2)c1)c1ccccc1 [Reference Example 42(a)]
4. C/C=C/C(=O)Nc1cccc(C(=O)c2ccc3c(/C=C/c4ccccn4)n[nH]c3c2)c1 [Reference Example 41(c)]

OUT:
42
94
79
83

Hello, the source for this data is patent EP1614683B1, in case you need it.
